test system: K4 kissing-loop RNA reporter; assay: apparent KD of K4 kissing-loop reporter; higher = weaker reporter binding; settings: Eterna round: R107; input ligand: tryptophan 2.4 mM;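 note: bound reporter read as fluorescence of individual clusters on recovered sequencing chips by microscopy, with normalized cluster intensities fitted with a binding model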
Response key: true (1) means apparent KD of K4 kissing-loop reporter >= 200 nM; false (0) means apparent KD of K4 kissing-loop reporter < 200 nM.

Hello, I need to know if UGGAGUUGACGAAAAGUCAACUCCUGAGAUACCAGUGACGAAAGUCACCCUUGGCAGCUCACUGCCAGUGAUGUUGGAAAUAAAA [#01 K4 Theophylline A Same State] has measured apparent KD of K4 kissing-loop reporter not below 200 nM. Thanks! true (1)

Hello, I need to know if CGGCGUGCCUUAUCCUCAUCUCUGACUCAACGAGGACCGGUACGGCCGCCACUCGGAAGAGGCAGUGAUGUUGCCUACGCCGGUG [Oronat] has measured apparent KD of K4 kissing-loop reporter not below 200 nM. Thanks! false (0)

Hello, I need to know if UGUACCGAGUCAGGAUAUGGCGUCGAAAGACGAAUCUUAGUGAUGUUAGGGAUCUGCGAAAGCAGUUCAGAAGGGACUUGGUACU [FmnBS 26 U37+U67] has measured apparent KD of K4 kissing-loop reporter not below 200 nM. Thanks! true (1)

Hello, I need to know if CGAGUGAUGUUCGUUUUAAAAUUUUUUUGACAGGAUAUGCGGAAACGCAGAAGGGUCACCUUUGAGUUAAAAGAAAUUAAAUUUU [Ex FMN 16] has measured apparent KD of K4 kissing-loop reporter not below 200 nM. Thanks! false (0)

Hello, I need to know if `UGGUCUGCACGAAGGAGCGCCCUGACAGGUUGCUGCCGUGGGCAGUGAUGUUGCUUAGUCCGGCAGGUAGGUCGCGUGCAGACCA` has measured apparent KD of K4 kissing-loop reporter not below 200 nM. Thanks! false (0)

Hello, I need to know if UGACAUUGCUCAGAUACCAGACAAGAGGAUCACCCUUGUGCCAAACGUACAAUAAUAAUUGUCCCUUGGCAGCUGAGCAAUGUCU [TheoBX 14] has measured apparent KD of K4 kissing-loop reporter not below 200 nM. Thanks! false (0)

Hello, I need to know if CCGUCGACAAGCGCCAUCGUCUACGUCAAUAAGGAUAUCAUCAAGGUGAGAAGGUAUGACAACCGGAGUGAUGUUCCAGGGCGAA [theeternabot_sameState_KL_FMN_A_5] has measured apparent KD of K4 kissing-loop reporter not below 200 nM. Thanks! true (1)

Hello, I need to know if CGCAGUGAUGUUGCGAGUAGCUACAGGGAAGGAGCGUGCUAGAGCACAGGUAGGUCGCCCAGUGGCAGUGAUGUUGCCAACGGGU [Exclusion ARginine A GF 18] has measured apparent KD of K4 kissing-loop reporter not below 200 nM. Thanks! false (0)

Hello, I need to know if GCGCGCGUUUUAGAUACCAGCCAGUGAUGUUGGCGAGGAUUCUGGAGCGUAGUGUCAAAUGGCCCUUGGCAGCUAACACGCGGCU [Zabea] has measured apparent KD of K4 kissing-loop reporter not below 200 nM. Thanks! false (0)

Hello, I need to know if UAGGAGUGAUGUUCCUUUAGCAGGUAGGAAGGAGCGCCCAUUUGGGCAGGUAGGUCGCCUACUGGCCCUGAGUUAAACCUUAGGC [#11 K4 Arginine A Same State] has measured apparent KD of K4 kissing-loop reporter not below 200 nM. Thanks! false (0)

Hello, I need to know if AGGCCGAGCCAAGGAUAUUGUCAGAGUGAUGUUCGCCAAUACUCCAGCCGCGCCUCAUCAGCUGAGCAAGAAGGUGGUCCUCUCA [theeternabot_exclusion_KL_FMN_B_47] has measured apparent KD of K4 kissing-loop reporter not below 200 nM. Thanks! true (1)

Hello, I need to know if `UGACUGGACUGAAGGAGCGCUGAACUCCUAGUGAUGUUAGGACAACGAGACAAAGUCUCGAAGCAGGUAGGUCGCAGUCUAGUCU` has measured apparent KD of K4 kissing-loop reporter not below 200 nM. Thanks! false (0)

Hello, I need to know if UCCUGCAAUCUGCCACGAAAGUGGAUUGAUACCAGAGUCGAAAGACUCCCUUGGCAGCGAGUGAUGUUCGACGCAGGUAAAUAAA [MatMod 5 - Jieux - Exclusion - Theophylline A] has measured apparent KD of K4 kissing-loop reporter not below 200 nM. Thanks! false (0)

Hello, I need to know if `GCCGUACGCAUGGAUACCAGCGCUCGUCACCUAGCAGUGAUGUUGCUAAUGCCACGAGGACGCCCUUGGCAGCCAUGCGUACGGC` has measured apparent KD of K4 kissing-loop reporter not below 200 nM. Thanks! false (0)

Hello, I need to know if AAUGAUCGUAUGGCGAGGUACUCGUGUUCGAAGGAUAUUAAUAGAAUAAGAAGGUCGAAAUCGUGUCUGGAAGUGAUGUUUCCAU [theeternabot_sameState_KL_FMN_A_32] has measured apparent KD of K4 kissing-loop reporter not below 200 nM. Thanks! false (0)

Hello, I need to know if CCGGGCGGCUGAAGGAGCGGGCGGGCCCGAGUGAUGUUCGGGUGGACCGUGAGGUCCGGUGCCCAGGUAGGUCGCGGUUCCGCCC [#2 Same State - Arginine B Attempt #8 (HarryS)] has measured apparent KD of K4 kissing-loop reporter not below 200 nM. Thanks! true (1)

Hello, I need to know if GGCAUAUAAAAUUGCCUAGAGAGAAAGGAUACCAGCACCCGGCGGUGCCCUUGGCAGCCUAGCCCAGUGAUGUUGGGUCCUCUAA [Esinvege] has measured apparent KD of K4 kissing-loop reporter not below 200 nM. Thanks! true (1)

Hello, I need to know if GGAUCCACCAGUGAUGUUGGAGAAAACUCUAAGGAUAUGACGAAAGUCAGAAGGUGGUAGACUGGACAAAGUCCGGUCGGAUCCA [FmnA 23 U30] has measured apparent KD of K4 kissing-loop reporter not below 200 nM. Thanks! true (1)

Hello, I need to know if CCGCCAUCGUCAGAUACCAGGCUGAUGGCGGUAACCGCCAAGCGAGUGAUGUUCGCAUCAGUCCCUUGGCAGCUGACGAAGACUG [#16 K4 Theophylline B Same State] has measured apparent KD of K4 kissing-loop reporter not below 200 nM. Thanks! false (0)

Hello, I need to know if CAUAGACAAGUGAUGUUUGUCAUAACCGAAGGAGCGUCUUUAAAGACAGGUAGGUCGCGGAUUAAUUAAGUUAUGAUUCUUUUUA [JR_SSArginiA_Sub017] has measured apparent KD of K4 kissing-loop reporter not below 200 nM. Thanks! true (1)
